# TARGET OR SYSTEM: A3 adenosine receptor (Homo sapiens, UniProt P0DMS8)
# Sequence (P0DMS8 1-318): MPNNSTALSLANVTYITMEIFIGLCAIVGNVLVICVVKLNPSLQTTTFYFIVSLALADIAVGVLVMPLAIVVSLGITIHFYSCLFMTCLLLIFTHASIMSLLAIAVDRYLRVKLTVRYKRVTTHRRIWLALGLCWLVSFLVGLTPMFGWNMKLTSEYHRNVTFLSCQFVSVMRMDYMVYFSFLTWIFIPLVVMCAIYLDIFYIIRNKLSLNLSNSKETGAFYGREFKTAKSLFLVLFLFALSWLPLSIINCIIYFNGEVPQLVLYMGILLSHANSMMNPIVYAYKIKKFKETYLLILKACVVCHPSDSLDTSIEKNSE
# ASSAY METHOD TEXT: cAMP inhibition assay, A3 adenosine receptor
# Type: cell-based
# DETAILS: Table 8
# From the text: This Example illustrates a preparation and some of the properties of conjugate 117 in accordance with an embodiment of the invention.
ATTRIBUTE MEASURED: Ki (nM)
One number for each entry, in nM.

// fetch Ki for NCCNCCNC(=O)Cc1ccc(NC(=O)Cc2ccc(Nc3ncnc4c3ncn4[C@@H]3O[C@H](CO)[C@@H](O)[C@H]3O)cc2)cc1 ; system: A3 adenosine receptor (Homo sapiens, UniProt P0DMS8)
61

====

# TARGET OR SYSTEM: hA3 AR (Homo sapiens, UniProt P0DMS8)
# Sequence (P0DMS8 1-318): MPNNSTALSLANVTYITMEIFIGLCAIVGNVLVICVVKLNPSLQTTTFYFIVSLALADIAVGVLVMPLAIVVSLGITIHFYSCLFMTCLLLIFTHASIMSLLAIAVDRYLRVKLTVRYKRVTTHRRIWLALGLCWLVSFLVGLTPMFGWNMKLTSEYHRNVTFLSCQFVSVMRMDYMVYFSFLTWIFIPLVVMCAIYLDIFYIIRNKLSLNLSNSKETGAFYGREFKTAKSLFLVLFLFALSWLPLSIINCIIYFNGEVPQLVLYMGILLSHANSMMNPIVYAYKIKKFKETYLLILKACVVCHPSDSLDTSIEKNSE
# ASSAY METHOD TEXT: Calcium protocol, CHO cells expressing human A3 receptor
Please provide measured pEC50 for the entries that follow.
Give bare numbers, as −log10 of the molar value.

1. CCNC(=O)[C@H]1OC(n2cnc3c(N)nc(NCCc4ccc(CCC(=O)NCCNC(C)=O)cc4)nc32)[C@@H](O)C1O (some centres unmarked) [compound 16]; 6.14

Note: attention shifts to another entry.
// fetch pEC50 for CCNC(=O)[C@H]1OC(n2cnc3c(N)nc(NCCc4ccc(CCC(=O)NCCNC(=S)Nc5ccc(NC(=S)NCCNC(C)=O)cc5)cc4)nc32)[C@@H](O)C1O (some centres unmarked) [compound 7] ; system: hA3 AR (Homo sapiens, UniProt P0DMS8)
6.43

====

// hA2A AR (Homo sapiens, UniProt P29274) Ki records
Numbers only, in nM.

1. CCNC(=O)[C@H]1OC(n2cnc3c(N)nc(NCCc4ccc(CCC(=O)NCCNC(C)=O)cc4)nc32)[C@@H](O)C1O (some centres unmarked) [compound 16]; 110

Note: attention shifts to another entry.
Fill in reported Ki for this entry: CCNC(=O)[C@H]1OC(n2cnc3c(N)nc(NCCc4ccc(CCC(=O)NCCNC(=S)Nc5ccc(NC(=S)NCCNC(C)=O)cc5)cc4)nc32)[C@@H](O)C1O (some centres unmarked) [compound 7]
70
